B1: FBF1 (parent)
chain: FGDSPKAEKRQIGDQEGPRPARST

# Variants of: B1
# ASSAY METHOD TEXT: protein stability index of a GFP-peptide fusion (GPS, HEK-293T) (PSI 1-6); higher = more stable;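 note: lentivirally expressed fusions sorted by FACS into six bins by GFP to DsRed ratio, PSI derived from sequencing read proportions per bin multiplied by bin number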
# CONDITIONS: c terminus: a fixed tail appended
ASSAY METRIC: protein stability index
In your answer, state the number alone without any accompanying words.

These recorded examples may help you get a feel for the data.
# VARIANT STRING, ASSAY VALUE
measured = [
    ("G2T", 4.82),
    ("P5E", 5.24),
    ("P20I", 4.84),
    ("G17A", 5.52),
    ("G13W", 2.74),
]

protein stability index for E16M ? 4.57

Given the variant I12G , what is its reported protein stability index? 5.03

State the recorded protein stability index for this entry: R22D 5.27
